# credit: the kinase profiling compilation of Christmann-Franck et al. (2016)

target: RPS6KA2 KD2 (human); test: KINOMEscan competition binding; settings: compound 10.0 µM
Documented kinase still bound, per cent of control across a set of compounds
Provide only the numeric value, understood in %.

Name the recorded kinase still bound, per cent of control for C[C@@H](Oc1cc(-c2cnn(C3CCNCC3)c2)cnc1N)c1c(Cl)ccc(F)c1Cl .
28

Name the recorded kinase still bound, per cent of control for CNC(=O)c1cc(Oc2ccc(NC(=O)Nc3ccc(Cl)c(C(F)(F)F)c3)cc2)ccn1 .
81

Name the recorded kinase still bound, per cent of control for C=CC(=O)Nc1ccc(CN(C(=O)Nc2c(Cl)c(OC)cc(OC)c2Cl)c2cc(Nc3ccc(N4CCN(C)CC4)cc3)ncn2)cc1 .
100

Name the recorded kinase still bound, per cent of control for NC(=O)Nc1cc(-c2cccc(F)c2)sc1C(=O)N[C@@H]1CCCNC1 .
1.9

Name the recorded kinase still bound, per cent of control for CN(C)C/C=C/C(=O)Nc1ccc(C(=O)Nc2cccc(Nc3nccc(-c4cccnc4)n3)c2)cc1 .
100

Name the recorded kinase still bound, per cent of control for CS(=O)(=O)N1CCN(Cc2cc3nc(-c4cccc5[nH]ncc45)nc(N4CCOCC4)c3s2)CC1 .
100

Name the recorded kinase still bound, per cent of control for C=CC(=O)Nc1cc(-n2c(=O)ccc3cnc4ccc(-c5cn[nH]c5)cc4c32)ccc1C .
92

Name the recorded kinase still bound, per cent of control for COc1cc(N2CCN(C)CC2)ccc1Nc1ncc2c(n1)N(C)c1ccccc1C(=O)N2C .
15

Name the recorded kinase still bound, per cent of control for COc1cc(C(=O)N2CCC(N3CCN(C)CC3)CC2)ccc1Nc1ncc2c(n1)N(C)c1ccccc1C(=O)N2C .
7.5

---

molecular target: UniProt:P22455; experiment: KINOMEscan competition binding; settings: compound 10.0 µM
Sequence (P22455 whole entry, looked up): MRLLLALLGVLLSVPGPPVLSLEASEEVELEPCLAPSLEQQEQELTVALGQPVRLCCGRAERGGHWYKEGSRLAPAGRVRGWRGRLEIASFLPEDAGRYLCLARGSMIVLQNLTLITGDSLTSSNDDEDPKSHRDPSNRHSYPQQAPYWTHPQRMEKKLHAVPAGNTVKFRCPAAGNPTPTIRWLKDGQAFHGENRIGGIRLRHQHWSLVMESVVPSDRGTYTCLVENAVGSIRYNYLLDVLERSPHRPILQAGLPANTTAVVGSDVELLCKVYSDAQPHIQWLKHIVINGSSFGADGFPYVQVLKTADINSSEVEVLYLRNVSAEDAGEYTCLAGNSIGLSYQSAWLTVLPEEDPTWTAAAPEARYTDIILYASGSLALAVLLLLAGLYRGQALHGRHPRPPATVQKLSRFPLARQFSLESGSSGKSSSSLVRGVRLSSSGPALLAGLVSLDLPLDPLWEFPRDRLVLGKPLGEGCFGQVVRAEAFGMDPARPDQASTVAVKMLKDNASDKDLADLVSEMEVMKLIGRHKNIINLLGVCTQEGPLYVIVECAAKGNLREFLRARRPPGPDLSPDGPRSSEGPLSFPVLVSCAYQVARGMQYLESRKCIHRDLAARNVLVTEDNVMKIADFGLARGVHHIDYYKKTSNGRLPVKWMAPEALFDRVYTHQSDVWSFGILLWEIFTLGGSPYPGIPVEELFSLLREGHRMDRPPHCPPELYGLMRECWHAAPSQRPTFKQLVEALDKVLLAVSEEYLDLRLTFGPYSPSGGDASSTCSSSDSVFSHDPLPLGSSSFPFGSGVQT
MEASURED_PARAMETER: kinase still bound, per cent of control

These recorded examples may help you get a feel for the data.
molecular_string=O=C1NC(=O)/C(=C/c2ccc3nccc(-c4ccncc4)c3c2)S1 recorded_result=59%
molecular_string=CN(C)C/C=C/C(=O)Nc1ccc(C(=O)Nc2cccc(Nc3nccc(-c4cccnc4)n3)c2)cc1 recorded_result=100%

API: the following record is the query input.
Name the recorded kinase still bound, per cent of control for C[C@@H](Oc1cc(-c2cnn(C3CCNCC3)c2)cnc1N)c1c(Cl)ccc(F)c1Cl .
98%

---

target: CDC42BPG (human) (UniProt Q6DT37); test: KINOMEscan competition binding; conditions: compound 10.0 µM
Sequence (Q6DT37 whole entry, looked up): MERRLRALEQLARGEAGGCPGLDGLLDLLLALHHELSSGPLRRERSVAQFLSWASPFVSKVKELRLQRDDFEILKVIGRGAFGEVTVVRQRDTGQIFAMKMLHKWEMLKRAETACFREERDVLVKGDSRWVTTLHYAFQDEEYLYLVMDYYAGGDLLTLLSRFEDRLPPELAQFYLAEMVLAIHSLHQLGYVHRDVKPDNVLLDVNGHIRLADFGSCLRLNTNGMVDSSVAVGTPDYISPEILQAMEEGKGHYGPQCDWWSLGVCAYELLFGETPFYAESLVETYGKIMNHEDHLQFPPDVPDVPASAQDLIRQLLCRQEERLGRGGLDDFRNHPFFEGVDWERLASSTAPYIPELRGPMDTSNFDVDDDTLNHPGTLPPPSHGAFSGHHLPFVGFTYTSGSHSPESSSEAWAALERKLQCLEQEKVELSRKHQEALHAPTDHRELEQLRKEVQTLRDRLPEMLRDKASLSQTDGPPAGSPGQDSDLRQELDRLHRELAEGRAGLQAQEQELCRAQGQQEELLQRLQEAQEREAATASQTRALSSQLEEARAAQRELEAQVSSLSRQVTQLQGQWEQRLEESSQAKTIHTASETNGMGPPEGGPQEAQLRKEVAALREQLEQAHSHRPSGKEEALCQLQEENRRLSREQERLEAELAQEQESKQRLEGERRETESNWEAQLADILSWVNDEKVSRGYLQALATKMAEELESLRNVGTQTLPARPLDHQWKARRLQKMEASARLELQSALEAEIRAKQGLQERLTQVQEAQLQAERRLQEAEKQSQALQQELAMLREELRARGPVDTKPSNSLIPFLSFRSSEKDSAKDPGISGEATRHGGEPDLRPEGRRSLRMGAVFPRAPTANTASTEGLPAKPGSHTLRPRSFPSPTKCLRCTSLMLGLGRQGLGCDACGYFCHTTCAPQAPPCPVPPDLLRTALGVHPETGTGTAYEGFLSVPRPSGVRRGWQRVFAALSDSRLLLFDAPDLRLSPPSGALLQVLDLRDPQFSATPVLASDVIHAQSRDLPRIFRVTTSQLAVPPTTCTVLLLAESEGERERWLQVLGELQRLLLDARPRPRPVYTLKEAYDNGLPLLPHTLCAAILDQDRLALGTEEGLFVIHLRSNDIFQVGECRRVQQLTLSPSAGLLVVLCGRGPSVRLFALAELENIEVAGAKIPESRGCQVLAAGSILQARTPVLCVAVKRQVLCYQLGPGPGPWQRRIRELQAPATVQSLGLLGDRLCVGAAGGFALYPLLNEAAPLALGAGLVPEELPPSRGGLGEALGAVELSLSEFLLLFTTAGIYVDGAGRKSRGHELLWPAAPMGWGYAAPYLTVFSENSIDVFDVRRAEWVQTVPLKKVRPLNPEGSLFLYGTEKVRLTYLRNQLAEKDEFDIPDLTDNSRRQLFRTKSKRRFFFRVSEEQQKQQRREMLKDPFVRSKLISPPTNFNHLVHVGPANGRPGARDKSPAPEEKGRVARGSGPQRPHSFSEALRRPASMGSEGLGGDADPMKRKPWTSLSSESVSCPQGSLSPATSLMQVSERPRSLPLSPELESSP
MEASURED_PARAMETER: kinase still bound, per cent of control (%)
Provide only the numeric value, understood in %.

These recorded examples may help you get a feel for the data.
molecular_string=CS(=O)(=O)N1CCN(Cc2cc3nc(-c4cccc5[nH]ncc45)nc(N4CCOCC4)c3s2)CC1 recorded_result=100
molecular_string=O=c1cc(N2CCOCC2)oc2c(-c3cccc4c3sc3ccccc34)cccc12 recorded_result=100

API: the following record is the query input.
Name the recorded kinase still bound, per cent of control for COCC(=O)NC/C=C/c1ccc2ncnc(Nc3ccc(Oc4ccc(C)nc4)c(C)c3)c2c1 .
90

---

Documented kinase still bound, per cent of control across a set of compounds
target: RPS6KA2 KD1 (human); test: KINOMEscan competition binding; conditions: compound 10.0 µM
Provide only the numeric value, understood in %.

molecular_string=Cc1n[nH]c2ccc(-c3cncc(OC[C@@H](N)Cc4c[nH]c5ccccc45)c3)cc12 measured_parameter="kinase still bound, per cent of control" reading_unit=% recorded_result=29
molecular_string=CNC(=O)c1ccc(Nc2cc(Nc3ccccc3S(=O)(=O)C(C)C)c3cc[nH]c3n2)nc1 measured_parameter="kinase still bound, per cent of control" reading_unit=% recorded_result=1.8
molecular_string=C[C@@H](Oc1cc(-c2cnn(C3CCNCC3)c2)cnc1N)c1c(Cl)ccc(F)c1Cl measured_parameter="kinase still bound, per cent of control" reading_unit=% recorded_result=34
molecular_string=CS(=O)(=O)N1CCN(Cc2cc3nc(-c4cccc5[nH]ncc45)nc(N4CCOCC4)c3s2)CC1 measured_parameter="kinase still bound, per cent of control" reading_unit=% recorded_result=100

Name the recorded kinase still bound, per cent of control for O=c1cc(N2CCOCC2)oc2c(-c3cccc4c3sc3ccccc34)cccc12 .
97

Name the recorded kinase still bound, per cent of control for COc1cc2ncn(-c3cc(OCc4ccccc4C(F)(F)F)c(C(N)=O)s3)c2cc1OC .
61

Name the recorded kinase still bound, per cent of control for NC(=O)Nc1cc(-c2cccc(F)c2)sc1C(=O)N[C@@H]1CCCNC1 .
5

Name the recorded kinase still bound, per cent of control for CCN(CC)CCCCNc1ncc2cc(-c3cc(OC)cc(OC)c3)c(NC(=O)NC(C)(C)C)nc2n1 .
100
